# Test system: Enterococcus sp.
# assay.method.text: in vitro antibacterial evaluation, MIC by broth dilution
# Assay type: cell-based
# assay.context: broth dilution, 18 hours at 35° C.
Reported values of MIC Enterococcus faecalis (GC 2242) for individual entries

| compound | target.system | MIC Enterococcus faecalis (GC 2242) (µg/mL) |
| --- | --- | --- |
| CC(C)=CCN1CC(C(O)C2NC(=O)C(C(O)C3CNC(=N)N3)NC(=O)C(Cc3ccc(OC4OC(CO)C(OC5OC6COC7(OC6C(O)C5O)C5CC6CC(C5)CC7C6)C(O)C4O)cc3)NC(=O)C(C(C)c3ccccc3)NC(=O)CNC(=O)C(CO)NC2=O)N(C2OC(CO)C(O)C(O)C2O)C1=N (stereo not shown) | Enterococcus sp. | 8 |
| CC(c1ccccc1)C1NC(=O)CNC(=O)C(CO)NC(=O)C(C(O)C2CNC(=N)N2C2OC(CO)C(O)C(O)C2O)NC(=O)C(C(O)C2CNC(=N)N2)NC(=O)C(Cc2ccc(OC3OC(CO)C(OC4OC(CO)C(OCC=C(c5ccccc5)c5ccccc5)C(O)C4O)C(O)C3O)cc2)NC1=O (stereo not shown) [Example 241a] | Enterococcus sp. | 4 |
| CC(c1ccccc1)C1NC(=O)CNC(=O)C(CO)NC(=O)C(C(O)C2CNC(=N)N2C2OC(CO)C(O)C(O)C2O)NC(=O)C(C(O)C2CNC(=N)N2)NC(=O)C(Cc2ccc(OC3OC(CO)C(OC4OC5COC6(CCSCC6)OC5C(O)C4O)C(O)C3O)cc2)NC1=O (stereo not shown) | Enterococcus sp. | 16 |

----------
# System: Staphylococcus sp.
# assay.method.text: in vitro antibacterial evaluation, MIC by broth dilution
# Format: cell-based
# assay.context: strain GC 1131; broth dilution, 18 hours at 35° C.
# Text: Methods for in vitro Antibacterial Evaluation (Table 1) […]
Reported values of MIC Staphylococcus aureus (GC 1131) for individual entries
assay.endpoint: MIC Staphylococcus aureus (GC 1131)

| compound | assay.endpoint | val |
| --- | --- | --- |
| CC(C)=CCCC(C)=CCN=C1NCC(C(O)C2NC(=O)C(C(O)C3CNC(=N)N3)NC(=O)C(Cc3ccc(OC4OC(CO)C(OC5OC6COC7(OC6C(O)C5O)C5CC6CC(C5)CC7C6)C(O)C4O)cc3)NC(=O)C(C(C)c3ccccc3)NC(=O)CNC(=O)C(CO)NC2=O)N1C1OC(CO)C(O)C(O)C1O (stereo not shown) | MIC Staphylococcus aureus (GC 1131) | 16 mg/L |
| CC(c1ccccc1)C1NC(=O)CNC(=O)C(CO)NC(=O)C(C(O)C2CNC(=N)N2C2OC(CO)C(O)C(O)C2O)NC(=O)C(C(O)C2CNC(=N)N2)NC(=O)C(Cc2ccc(OC3OC(CO)C(OC4OC5COC6(CC7CCC6(C)C7(C)C)OC5C(O)C4O)C(O)C3O)cc2)NC1=O (stereo not shown) [Example 215] | MIC Staphylococcus aureus (GC 1131) | 0.5 mg/L |
| COc1cc(-c2nc3cc(CC4NC(=O)C(C(C)c5ccccc5)NC(=O)CNC(=O)C(CO)NC(=O)C(C(O)C5CNC(=N)N5C5OC(CO)C(O)C(O)C5O)NC(=O)C(C(O)C5CNC(=N)N5)NC4=O)ccc3o2)cc(OC)c1OC (stereo not shown) | MIC Staphylococcus aureus (GC 1131) | 32 mg/L |
| CN=C1N(C)CC(CC2NC(=O)C(Cc3ccc(OC4OC(CO)C(OC5OC(CO)C(O)C(O)C5O)C(O)C4O)cc3)NC(=O)C(C(C)c3ccccc3)NC(=O)CNC(=O)C(CO)NC(=O)C(CC3CN(C)C(=NC)N3C3OC(CO)C(O)C(O)C3O)NC2=O)N1C (stereo not shown) | MIC Staphylococcus aureus (GC 1131) | >128 mg/L |
| CC(c1ccccc1)C1NC(=O)CNC(=O)C(CO)NC(=O)C(C(O)C2CN(Cc3ccc(C(C)(C)C)cc3)C(=N)N2C2OC(CO)C(O)C(O)C2O)NC(=O)C(C(O)C2CNC(=N)N2)NC(=O)C(Cc2ccc(OC3OC(CO)C(OC4OC(CO)C(O)C(O)C4O)C(O)C3O)cc2)NC1=O (stereo not shown) | MIC Staphylococcus aureus (GC 1131) | >128 mg/L |
| CC(c1ccccc1)C1NC(=O)CNC(=O)C(CO)NC(=O)C(C(O)C2CNC(=N)N2C2OC(CO)C(O)C(O)C2O)NC(=O)C(C(O)C2CNC(=N)N2)NC(=O)C(Cc2ccc(OC3OC(COC(=O)C(c4ccccc4)c4ccccc4)C(OC4OC(CO)C(O)C(O)C4O)C(O)C3O)cc2)NC1=O (stereo not shown) [Example 96b] | MIC Staphylococcus aureus (GC 1131) | 2 mg/L |
| CC(c1ccccc1)C1NC(=O)CNC(=O)C(CO)NC(=O)C(C(O)C2CNC(=N)N2C2OC(COC(=O)C(c3ccccc3)c3ccccc3)C(O)C(O)C2O)NC(=O)C(C(O)C2CNC(=N)N2)NC(=O)C(Cc2ccc(OC3OC(CO)C(OC4OC(CO)C(O)C(O)C4O)C(O)C3O)cc2)NC1=O (stereo not shown) | MIC Staphylococcus aureus (GC 1131) | >128 mg/L |

Entry source: patent US6914045B2
